Target: full-length human Hpk1 (Homo sapiens, UniProt Q92918)
Construct: A recombinant fusion protein consisting of full-length human Hpk1; GST (N)
Sequence (Q92918 whole entry, the tested form may be a part): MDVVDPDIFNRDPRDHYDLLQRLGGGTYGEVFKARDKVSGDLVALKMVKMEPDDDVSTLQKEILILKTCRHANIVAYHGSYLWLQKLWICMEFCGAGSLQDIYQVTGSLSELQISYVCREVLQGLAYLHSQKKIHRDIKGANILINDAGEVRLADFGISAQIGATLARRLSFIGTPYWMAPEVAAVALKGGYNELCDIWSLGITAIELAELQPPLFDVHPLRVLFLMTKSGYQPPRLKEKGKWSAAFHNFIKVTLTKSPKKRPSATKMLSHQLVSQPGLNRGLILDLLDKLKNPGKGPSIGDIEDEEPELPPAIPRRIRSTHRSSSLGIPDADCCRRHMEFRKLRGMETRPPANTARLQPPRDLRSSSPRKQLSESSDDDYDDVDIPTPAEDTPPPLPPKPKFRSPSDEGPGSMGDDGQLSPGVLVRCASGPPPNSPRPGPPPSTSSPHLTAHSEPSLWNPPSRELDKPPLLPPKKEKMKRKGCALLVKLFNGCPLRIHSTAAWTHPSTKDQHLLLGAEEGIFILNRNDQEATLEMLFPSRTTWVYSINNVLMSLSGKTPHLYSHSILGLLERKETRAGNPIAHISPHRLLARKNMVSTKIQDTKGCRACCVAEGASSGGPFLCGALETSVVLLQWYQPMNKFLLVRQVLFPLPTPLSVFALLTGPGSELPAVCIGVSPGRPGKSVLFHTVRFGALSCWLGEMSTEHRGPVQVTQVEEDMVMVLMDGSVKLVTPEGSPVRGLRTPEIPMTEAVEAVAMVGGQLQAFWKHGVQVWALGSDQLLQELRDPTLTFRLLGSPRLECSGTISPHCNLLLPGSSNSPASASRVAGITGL
Assay: HPK1 kinase assay (ADP Glo Kinase Assay)
Assay type: biochemical
Conditions: full-length human GST-Hpk1, ADP Glo, 75 μM ATP; read-out: Hpk1 biochemical (pIC50) (converted)
Quantity: IC50
State the result as a value with its unit after it.

| Molecule | IC50 |
| --- | --- |
| N#Cc1cc(-c2ccc(C3CCOCC3)c([C@@H]3CCCN3)c2)cnc1N | 9.33 nM |

In plain terms, "Nc1ncc(-c2ccc(C3CCOCC3)c(CN3CCCC3)c2)cc1-c1ccncc1" has a documented IC50 of 117 nM

IC50 reported for this molecule "[2H]c1cc(-c2cc(-c3ccc(C4CCOCC4)c([C@@H]4CCCN4)c3)cnc2N)ccn1" : 17 nM

Briefly, IC50 measured for CC(CO)CNC(=O)c1cc(-c2ccc(C3CCOCC3)c(CN(C)C)c2)cnc1N (centres unmarked) : 110 nM

For record "Nc1ncc(-c2ccc(C3CCOCC3)c([C@@H]3CN4CCCC[C@H]4CN3)c2)cc1Br" the listed IC50 is 58.9 nM

###

Molecular target: Hpk1 (Homo sapiens, UniProt Q92918)
Test: SLP76 phosphorylation assay (SLP76 pS376 in lysates of HEK293 cells engineered to express Hpk1 and SLP76)
Type: cell-based
Details: HEK293 cells expressing Hpk1 and SLP76, 4 hours incubation; read-out: pSLP76 (HEK293) (pIC50) (converted)
Quantity: IC50 (nM)
Just the number in nM, nothing appended.

Worked cases, answers included:
| Compound | Unit abbrev | IC50 |
| --- | --- | --- |
| CN(C)Cc1cc(-c2cnc(N)c(-c3ccnc(N4CCNCC4)c3)c2)ccc1C1CCOCC1 | nM | 1660 |
| Nc1ncc(-c2ccc(C3CCOCC3)c([C@@H]3COCCN3)c2)cc1Cl | nM | 1150 |
| [2H]c1cc(-c2cc(-c3ccc(C4CCOCC4)c([C@@H]4CCCN4)c3)cnc2N)cc([2H])n1 | nM | 1200 |
| Nc1ncc(-c2ccc(C3CCOCC3)c([C@@H]3CC4(CC4)CN3)c2)cc1-c1ccnc(F)c1 (single isomer, unassigned) | nM | 776 |
| CO[C@H]1CC[C@@H](c2ccc(-c3cnc(N)c(-c4ccnc(F)c4)c3)cc2[C@@H]2CCCN2)CC1 | nM | 550 |
| C[C@H]1CCN[C@@H]1c1cc(-c2cnc(N)c(-c3ccncc3)c2)ccc1C1CCOCC1 (racemic) | nM | 2140 |
| Nc1ncc(-c2ccc(N3CCOCC3)c([C@@H]3CCCN3)c2)cc1-c1ccnc(F)c1 | nM | 871 |
| Nc1ncc(-c2ccc(C3CCOCC3)c([C@@H]3CCCN3)c2)cc1-c1ccncc1F | nM | 316 |

Noted for "N#Cc1cc(-c2ccc(C3CCOCC3)c([C@@H]3CCCN3)c2)cnc1N" : its IC50 reads 339

Entry "Nc1ncc(-c2ccc(C3CCOCC3)c([C@@H]3CCCN3)c2)cc1Br" — recorded IC50 = 646

###

Catalogue of IC50 readings, one per entry.
Target: Hpk1 (Homo sapiens, UniProt Q92918)
Assay: SLP76 phosphorylation assay (SLP76 pS376 in lysates of HEK293 cells engineered to express Hpk1 and SLP76)
Assay type: cell-based
Conditions: HEK293 cells expressing Hpk1 and SLP76, 4 hours incubation; read-out: pSLP76 (HEK293) (pIC50) (converted)
Please respond with the number in µM and leave the unit unwritten.

Study these solved cases before continuing.
| Compound | IC50, µM |
| --- | --- |
| Nc1ncc(-c2ccc(C3CCOCC3)c([C@@H]3CCCN3)c2)cc1-c1cn[nH]c1 | 0.302 |
| Nc1ncc(-c2ccc(C3CCOCC3)c([C@@H]3CCCN3)c2)cc1-c1ccncn1 | 0.245 |
| Cc1cc(-c2ccc(C3CCOCC3)c([C@@H]3COCCN3)c2)cnc1N | 3.98 |

Entry Nc1ncc(-c2ccc(N3CCOCC3)c(C3CCCN3)n2)cc1-c1ccncc1 (centres unmarked) — recorded IC50 = 5.01

compound "CN(C)Cc1cc(-c2cnc(N)c(-c3ccncc3F)c2)ccc1C1CCOCC1" , IC50 observed: 2.29
